Measured values drawn from ChEMBL document CHEMBL1156306 for this set.

Experiment: Inhibition of FBS-induced cell proliferation of rat VSMC after 24 hrs by BrdU incorporation assay
Format: functional, cell-based
ENDPOINT NAME: EC50 (µM)
Express it in µM; write the number only.

Problem: Quick one: EC50 of `CCCCCCCCc1ccc(C(=O)N[C@@H](C)C(=N)N)cc1.Cl` ?
Result: 10

* * *

Can you tell me Ki for the items I'm about to list?
Target: Sphingosine kinase 2 (Mus musculus) (UniProt Q9JIA7)
Sequence (whole entry): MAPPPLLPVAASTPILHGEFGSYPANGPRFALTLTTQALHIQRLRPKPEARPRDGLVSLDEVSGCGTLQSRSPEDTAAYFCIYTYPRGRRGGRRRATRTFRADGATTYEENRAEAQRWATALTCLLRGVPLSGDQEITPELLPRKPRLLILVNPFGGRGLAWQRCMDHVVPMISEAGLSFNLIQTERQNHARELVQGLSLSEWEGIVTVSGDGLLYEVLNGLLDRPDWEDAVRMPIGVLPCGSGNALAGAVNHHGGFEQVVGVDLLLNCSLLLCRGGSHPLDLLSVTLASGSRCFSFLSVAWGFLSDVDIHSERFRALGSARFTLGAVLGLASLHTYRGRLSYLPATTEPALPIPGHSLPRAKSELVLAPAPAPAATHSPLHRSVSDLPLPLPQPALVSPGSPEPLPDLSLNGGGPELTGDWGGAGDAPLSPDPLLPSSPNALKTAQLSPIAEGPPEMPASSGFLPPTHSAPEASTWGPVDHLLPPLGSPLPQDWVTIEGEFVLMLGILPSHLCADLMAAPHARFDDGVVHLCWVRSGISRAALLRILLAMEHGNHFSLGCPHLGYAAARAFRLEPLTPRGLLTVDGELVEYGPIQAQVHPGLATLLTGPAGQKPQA
Assay: Inhibition of mouse recombinant SPHK2 expressed in baculovirus-infected Sf9 cells in presence of sphingosine
Express it in µM; write the number only.

Problem: Quick one: Ki of `CCCCCCCCc1ccc(C(=O)NCC(=N)N)cc1` ?
Result: 60

Problem: Quick one: Ki of `CCCCCCCCCCc1ccc(C(=O)NC2(C(=N)N)CC2)cc1` ?
Result: 4

Problem: Quick one: Ki of `CCCCCCCCCCCCc1ccc(C(=O)NC2(C(=N)N)CC2)cc1` ?
Result: 0.5

Problem: Quick one: Ki of `CCCCCCCCCCc1ccc(NC(=O)C2(C(=N)N)CC2)cc1` ?
Result: 4
